Here the recorded pIC50 is given for each entry.
# System: K562 (Chronic Myeloid Leukemia) cells
# method description: Cellular growth assay (MTT), K562
# Format: cell-based
# experimental parameters: Homo sapiens, 40 hr incubation, read-out: K562 (inhibition of 50% of cellular growth)
pIC50: −log10 of the molar value.
reported metric: pIC50

molecule: CCCC(Nc1cncc(-c2ccc(NC(C)=O)c(OC)c2)n1)c1cccnc1 (centres unmarked)
study target: K562 (Chronic Myeloid Leukemia) cells
reported value: ≥ 4.70
//
molecule: CCC[C@H](Nc1cncc(-c2ccc(O)c(OC)c2)n1)c1cccnc1
study target: K562 (Chronic Myeloid Leukemia) cells
reported value: ≥ 4.70
//
molecule: CCCC(Nc1cncc(-c2ccc(O)c(OC)c2)n1)c1cccc(OC(F)(F)F)c1 (centres unmarked)
study target: K562 (Chronic Myeloid Leukemia) cells
reported value: ≥ 4.70
//
molecule: CCN(CC)CCCC(Nc1cncc(-c2ccc(O)c(OC)c2)n1)c1ccccc1 (centres unmarked)
study target: K562 (Chronic Myeloid Leukemia) cells
reported value: < 4.70
//
molecule: CCCC(=O)Nc1ccc(-c2cncc(NC(CCC)c3cccnc3)n2)cc1OC (centres unmarked)
study target: K562 (Chronic Myeloid Leukemia) cells
reported value: ≥ 4.70

* * *

# System: K562 (Chronic Myeloid Leukemia) cells
# method description: Cellular growth assay (MTT), K562
# Format: cell-based
# experimental parameters: Homo sapiens, 40 hr incubation, read-out: K562 (inhibition of 50% of cellular growth)

compound: CCCC(Nc1cncc(-c2ccc(O)c(OC)c2)n1)c1cccc(C)c1 (stereo not shown)
IC50: ≤ 20 µM
--
compound: CCN(CC)CCCCC(Nc1cncc(-c2ccc(O)c(OC)c2)n1)c1ccccc1 (stereo not shown)
IC50: > 20 µM
--
compound: COCCC(Nc1cncc(-c2ccc(O)c(OC)c2)n1)c1ccccc1 (stereo not shown)
IC50: ≤ 20 µM
--
compound: CCCC(Nc1cncc(-c2ccc(O)c(OC)c2)n1)c1ccc(C(F)(F)F)cc1 (stereo not shown)
IC50: > 20 µM
--
compound: CCCC(Nc1cncc(-c2ccc(O)c(OC)c2)n1)c1ccncc1 (stereo not shown)
IC50: ≤ 20 µM
--
compound: CCCC(Nc1cncc(-c2ccc(O)c(OC)c2)n1)c1cccc(NC(=O)c2cccnc2)c1 (stereo not shown)
IC50: ≤ 20 µM
--
compound: COc1cc(-c2cncc(NC(C)c3ccccn3)n2)ccc1O (stereo not shown)
IC50: > 20 µM
--
compound: CCCC(Nc1cncc(-c2ccc(NC(C)=O)c(OC)c2)n1)c1ccc(F)cc1 (stereo not shown)
IC50: ≤ 20 µM
--
compound: CCCC(Nc1nc(-c2ccc(O)c(OC)c2)cnc1C)c1ccccc1 (stereo not shown)
IC50: ≤ 20 µM
--
compound: CCCC(Nc1cncc(-c2ccc(O)c(OC)c2)n1)c1cccc(C#N)c1 (stereo not shown)
IC50: ≤ 20 µM
--
compound: CCCC(Nc1cnc(C)c(-c2ccc(N)c(OC)c2)n1)c1ccccc1 (stereo not shown)
IC50: ≤ 20 µM
--
compound: CCCC(Nc1cncc(-c2ccc(O)c(OC)c2)n1)c1ccc(Cl)cc1 (stereo not shown)
IC50: ≤ 20 µM
--
compound: CCCC(Nc1cncc(-c2ccc3c(c2)OCO3)n1)c1cccnc1 (stereo not shown)
IC50: ≤ 20 µM

* * *

Here the recorded IC50 is given for each entry.
# System: PC3 (Prostate Cancer) cells
# method description: Cellular growth assay (MTT), PC3
# Assay type: cell-based
# experimental parameters: Homo sapiens, PC-3, 40 hr incubation, read-out: PC3 (inhibition of 50% of cellular growth)

compound: CCCC(Nc1cncc(-c2ccc(O)c(OC)c2)n1)c1cccc(OC(F)(F)F)c1 (centres unmarked)
IC50: > 20 µM
--
compound: CCCC(Nc1cncc(-c2ccc(O)c(OC)c2)n1)c1cccc([C@H](O)OCCOCC)c1 (some centres unmarked)
IC50: > 20 µM
--
compound: CCCC(Nc1cncc(-c2ccc(O)c(OC)c2)n1)c1ccccc1 (centres unmarked)
IC50: ≤ 20 µM
--
compound: CCCC(Nc1cncc(-c2cc(C)c(OCCN(CC)CC)c(C)c2)n1)c1ccc(F)cc1 (centres unmarked)
IC50: ≤ 20 µM
--
compound: CCCC(Nc1cncc(-c2ccc(O)c(OC)c2)n1)c1ccc(OC)c(OC)c1 (centres unmarked)
IC50: > 20 µM

Entry source: patent US8084456B2
